System: A-431
Assay Notes: Cytotoxicity against human A431 cells after 96 hrs by SRB assay
Format: functional, cell-based
Settings: A-431, 96 h
Value Type: IC50 (µM)

- C=C(C)[C@@H]1CC[C@]2(/C=C3\CCOC3=O)CC[C@]3(C)[C@H](CC[C@@H]4[C@@]5(C)CC[C@H](OC(C)=O)C(C)(C)[C@@H]5CC[C@]43C)[C@@H]12: 19.4
- C=C(C)[C@@H]1CC[C@]2([C@H](O)[C@H]3C=CC(=O)O3)CC[C@]3(C)[C@H](CC[C@@H]4[C@@]5(C)CC[C@H](OC(C)=O)C(C)(C)[C@@H]5CC[C@]43C)[C@@H]12: 8.9
- C=C(C)[C@@H]1CC[C@]2([C@H](O)CC(=O)CC(=O)OCC)CC[C@]3(C)[C@H](CC[C@@H]4[C@@]5(C)CC[C@H](OC(C)=O)C(C)(C)[C@@H]5CC[C@]43C)[C@@H]12: 16.1
- C=C(C)[C@@H]1CC[C@]2(C(=O)[C@H]3CCOC3=O)CC[C@]3(C)[C@H](CC[C@@H]4[C@@]5(C)CC[C@H](OC(C)=O)C(C)(C)[C@@H]5CC[C@]43C)[C@@H]12 (mixture of isomers): 7.3
- CCOC(=O)C[C@H]1O[C@@H]2[C@@H]3[C@H]4CC[C@@H]5[C@@]6(C)CC[C@H](OC(C)=O)C(C)(C)[C@@H]6CC[C@@]5(C)[C@]4(C)CC[C@@]31CCC2(C)C: 22.6
- C=C(C)[C@@H]1CC[C@]2([C@H]3CO3)CC[C@]3(C)[C@H](CC[C@@H]4[C@@]5(C)CC[C@H](O)C(C)(C)[C@@H]5CC[C@]43C)[C@@H]12: 23.5
- C=C(C)[C@@H]1CC[C@]2([C@@H]3CO3)CC[C@]3(C)[C@H](CC[C@@H]4[C@@]5(C)CC[C@H](O)C(C)(C)[C@@H]5CC[C@]43C)[C@@H]12: 20.1
- C=C(C)[C@@H]1CC[C@]2([C@H](O)CC(=O)CC(=O)OCC)CC[C@]3(C)[C@H](CC[C@@H]4[C@@]5(C)CC[C@H](OC)C(C)(C)[C@@H]5CC[C@]43C)[C@@H]12: 20.7
- C=C(C)[C@@H]1CC[C@]2([C@H](O)[C@H]3CCOC3=O)CC[C@]3(C)[C@H](CC[C@@H]4[C@@]5(C)CC[C@H](OC(C)=O)C(C)(C)[C@@H]5CC[C@]43C)[C@@H]12: 11.7
- CCOC(=O)CC(=O)C[C@H]1O[C@@H]2[C@@H]3[C@H]4CC[C@@H]5[C@@]6(C)CC[C@H](OC(C)=O)C(C)(C)[C@@H]6CC[C@@]5(C)[C@]4(C)CC[C@@]31CCC2(C)C: 9.8
- C=C(C)[C@@H]1CC[C@]2([C@@H]3O[C@H]3C(=O)N(CC)CC)CC[C@]3(C)[C@H](CC[C@@H]4[C@@]5(C)CC[C@H](OC(C)=O)C(C)(C)[C@@H]5CC[C@]43C)[C@@H]12: 4.3
- C=C(C)[C@@H]1CC[C@]2(C(=O)CC(=O)OCC)CC[C@]3(C)[C@H](CC[C@@H]4[C@@]5(C)CC[C@H](OC(C)=O)C(C)(C)[C@@H]5CC[C@]43C)[C@@H]12: 2.6
- C=C(C)[C@@H]1CC[C@]2(C(=O)CC(=O)OCC)CC[C@]3(C)[C@H](CC[C@@H]4[C@@]5(C)CC[C@H](OC)C(C)(C)[C@@H]5CC[C@]43C)[C@@H]12: 3.9
- C=C(C)[C@@H]1CC[C@]2([C@H](O)CC(=O)OCC)CC[C@]3(C)[C@H](CC[C@@H]4[C@@]5(C)CC[C@H](OC(C)=O)C(C)(C)[C@@H]5CC[C@]43C)[C@@H]12: 18.7

Cited source for all entries: ChEMBL document CHEMBL1159047
